MEASURED TARGET: T1, TIGIT (UniProt Q495A1 22-244)
T1 construct: whole, on cells
T1 sequence (looked up): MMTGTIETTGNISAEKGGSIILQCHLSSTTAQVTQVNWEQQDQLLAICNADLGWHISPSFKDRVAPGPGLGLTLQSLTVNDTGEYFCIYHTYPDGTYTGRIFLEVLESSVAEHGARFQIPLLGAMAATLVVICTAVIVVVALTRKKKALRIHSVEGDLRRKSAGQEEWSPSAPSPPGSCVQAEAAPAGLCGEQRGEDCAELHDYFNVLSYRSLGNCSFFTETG
EXPERIMENTAL DETAILS: flow cytometry on cells expressing TIGIT, Fc fusion at 100 nM
EXPERIMENTAL READOUT: MFI at 100 nM (MFI)
// return numeric value only (unit: MFI, not printed)

Note down MFI at 100 nM recorded for CD155 S42N/S52E/V57L/L104E variant IgV-Fc fusion (Fc fusion, not shown: a dimerising Fc or GST) WPPPGTGDVVVQAPTQVPGFLGDSVTLPCYLQVPNMEVTHVNQLTWARHGEEGSMALFHQTQGPSYSESKRLEFVAARLGAELRNASLRMFGLRVEDEGNYTCEFVTFPQGSRSVDIWLRVL 1780

Note down MFI at 100 nM recorded for CD155 S42C/S52M/Q62F variant IgV-Fc fusion (Fc fusion, not shown: a dimerising Fc or GST) WPPPGTGDVVVQAPTQVPGFLGDSVTLPCYLQVPNMEVTHVCQLTWARHGEMGSMAVFHQTFGPSYSESKRLEFVAARLGAELRNASLRMFGLRVEDEGNYTCLFVTFPQGSRSVDIWLRVL 1860

Note down MFI at 100 nM recorded for CD155 S42G/S52L/Q62F/L104Q variant IgV-Fc fusion (Fc fusion, not shown: a dimerising Fc or GST) WPPPGTGDVVVQAPTQVPGFLGDSVTLPCYLQVPNMEVTHVGQLTWARHGELGSMAVFHQTFGPSYSESKRLEFVAARLGAELRNASLRMFGLRVEDEGNYTCQFVTFPQGSRSVDIWLRVL 1920

Note down MFI at 100 nM recorded for CD155 S42A variant IgV-Fc fusion (Fc fusion, not shown: a dimerising Fc or GST) WPPPGTGDVVVQAPTQVPGFLGDSVTLPCYLQVPNMEVTHVAQLTWARHGESGSMAVFHQTQGPSYSESKRLEFVAARLGAELRNASLRMFGLRVEDEGNYTCLFVTFPQGSRSVDIWLRVL 1930

Note down MFI at 100 nM recorded for CD155 S42L variant IgV-Fc fusion (Fc fusion, not shown: a dimerising Fc or GST) WPPPGTGDVVVQAPTQVPGFLGDSVTLPCYLQVPNMEVTHVLQLTWARHGESGSMAVFHQTQGPSYSESKRLEFVAARLGAELRNASLRMFGLRVEDEGNYTCLFVTFPQGSRSVDIWLRVL 1930
